# measuredTarget: human α1H T-type channels (Homo sapiens)
# protocol: T-type calcium channel block, whole cell patch clamp, α1H
# testConditions: HEK cells stably expressing human α1H; mainly non-inactivated protocol; values above 10,000 nM represented as 10000
Overview of reported pIC50 across a group of compounds:
Note: pIC50 values are expressed as the negative base-10 logarithm of concentration in M.

- compound: "CC(C)(CNS(=O)(=O)c1ccc2c(c1)OCO2)S(=O)(=O)c1cccc(C(F)(F)F)c1 [Compound 500]"
  pIC50: 5.51
- compound: "CC(C)(C(=O)Nc1ccc(Oc2ccccc2)cc1)S(=O)(=O)c1cccc(C(F)(F)F)c1 [Compound 487]"
  pIC50: 5.48
- compound: "CC(C)(CCNC(=O)c1ccc(F)c(C(F)(F)F)c1)S(=O)(=O)c1cccc(C(F)(F)F)c1 [Compound 466]"
  pIC50: 6.26

# ---- query compound ----
Ask: Consider the compound shown here: O=C(N[C@H]1CC[C@H](CS(=O)(=O)c2cccc(C(F)(F)F)c2)CC1)c1cc(C(F)(F)F)n[nH]1 [Compound 112] What is its recorded pIC50?
Reply: 5.08

----------
Overview of reported pIC50 across a group of molecules:
# measuredTarget: CAv1.2 (Homo sapiens, UniProt Q13936)
# Sequence (Q13936 whole entry): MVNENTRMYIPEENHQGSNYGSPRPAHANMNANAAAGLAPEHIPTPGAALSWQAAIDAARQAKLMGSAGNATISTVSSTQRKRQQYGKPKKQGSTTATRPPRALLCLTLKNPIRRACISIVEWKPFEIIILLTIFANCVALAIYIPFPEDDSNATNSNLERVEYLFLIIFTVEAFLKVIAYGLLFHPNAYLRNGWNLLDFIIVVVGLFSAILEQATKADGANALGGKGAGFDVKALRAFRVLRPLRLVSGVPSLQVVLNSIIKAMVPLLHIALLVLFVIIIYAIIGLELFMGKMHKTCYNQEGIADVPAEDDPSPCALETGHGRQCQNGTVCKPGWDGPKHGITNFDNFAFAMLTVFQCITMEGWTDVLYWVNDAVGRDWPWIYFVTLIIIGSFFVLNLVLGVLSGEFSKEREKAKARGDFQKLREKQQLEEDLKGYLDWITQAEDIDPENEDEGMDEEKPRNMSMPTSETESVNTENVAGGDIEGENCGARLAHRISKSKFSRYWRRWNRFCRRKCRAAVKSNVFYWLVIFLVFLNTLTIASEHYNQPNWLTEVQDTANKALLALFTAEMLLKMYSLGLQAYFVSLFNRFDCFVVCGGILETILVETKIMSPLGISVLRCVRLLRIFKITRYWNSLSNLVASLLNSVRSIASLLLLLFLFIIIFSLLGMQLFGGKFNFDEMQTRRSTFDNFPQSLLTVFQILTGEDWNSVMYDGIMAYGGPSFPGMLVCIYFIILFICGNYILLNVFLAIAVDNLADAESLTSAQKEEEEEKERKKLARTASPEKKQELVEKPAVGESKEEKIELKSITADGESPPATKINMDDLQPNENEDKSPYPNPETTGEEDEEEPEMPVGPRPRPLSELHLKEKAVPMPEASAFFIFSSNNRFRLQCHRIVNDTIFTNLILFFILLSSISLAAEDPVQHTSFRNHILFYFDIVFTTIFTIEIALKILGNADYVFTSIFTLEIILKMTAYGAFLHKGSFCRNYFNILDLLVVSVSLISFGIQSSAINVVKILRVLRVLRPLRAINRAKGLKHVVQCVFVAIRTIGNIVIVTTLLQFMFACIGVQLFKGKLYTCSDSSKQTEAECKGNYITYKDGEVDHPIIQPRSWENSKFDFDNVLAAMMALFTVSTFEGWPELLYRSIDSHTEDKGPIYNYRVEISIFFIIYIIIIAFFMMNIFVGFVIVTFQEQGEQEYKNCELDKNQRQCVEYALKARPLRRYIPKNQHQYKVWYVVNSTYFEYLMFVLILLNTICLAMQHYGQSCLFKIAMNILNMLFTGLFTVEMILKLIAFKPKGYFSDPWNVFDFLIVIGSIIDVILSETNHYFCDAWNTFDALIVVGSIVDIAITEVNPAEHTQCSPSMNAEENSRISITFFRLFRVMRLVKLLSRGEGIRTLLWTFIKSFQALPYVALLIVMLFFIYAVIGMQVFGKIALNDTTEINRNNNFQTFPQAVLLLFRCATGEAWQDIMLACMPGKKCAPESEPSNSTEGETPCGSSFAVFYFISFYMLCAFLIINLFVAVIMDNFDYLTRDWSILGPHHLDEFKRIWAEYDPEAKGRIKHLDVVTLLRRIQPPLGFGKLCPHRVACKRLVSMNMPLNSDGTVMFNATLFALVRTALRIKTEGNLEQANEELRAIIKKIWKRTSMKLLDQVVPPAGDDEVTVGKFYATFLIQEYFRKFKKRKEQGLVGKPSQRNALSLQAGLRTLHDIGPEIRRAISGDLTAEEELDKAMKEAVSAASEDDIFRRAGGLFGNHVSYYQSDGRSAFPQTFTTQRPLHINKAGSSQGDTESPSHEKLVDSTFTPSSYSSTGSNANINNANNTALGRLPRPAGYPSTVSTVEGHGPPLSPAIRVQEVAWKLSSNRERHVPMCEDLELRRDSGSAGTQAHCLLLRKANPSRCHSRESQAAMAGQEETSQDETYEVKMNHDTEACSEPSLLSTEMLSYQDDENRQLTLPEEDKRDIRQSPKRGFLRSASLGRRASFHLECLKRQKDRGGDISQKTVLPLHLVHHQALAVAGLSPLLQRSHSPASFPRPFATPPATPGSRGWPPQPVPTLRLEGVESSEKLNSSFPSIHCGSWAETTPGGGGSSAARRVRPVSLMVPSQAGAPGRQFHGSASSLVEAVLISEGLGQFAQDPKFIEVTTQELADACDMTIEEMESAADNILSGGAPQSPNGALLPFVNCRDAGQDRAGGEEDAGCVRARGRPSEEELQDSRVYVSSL
# Sequence (P54289 25-1103 partner): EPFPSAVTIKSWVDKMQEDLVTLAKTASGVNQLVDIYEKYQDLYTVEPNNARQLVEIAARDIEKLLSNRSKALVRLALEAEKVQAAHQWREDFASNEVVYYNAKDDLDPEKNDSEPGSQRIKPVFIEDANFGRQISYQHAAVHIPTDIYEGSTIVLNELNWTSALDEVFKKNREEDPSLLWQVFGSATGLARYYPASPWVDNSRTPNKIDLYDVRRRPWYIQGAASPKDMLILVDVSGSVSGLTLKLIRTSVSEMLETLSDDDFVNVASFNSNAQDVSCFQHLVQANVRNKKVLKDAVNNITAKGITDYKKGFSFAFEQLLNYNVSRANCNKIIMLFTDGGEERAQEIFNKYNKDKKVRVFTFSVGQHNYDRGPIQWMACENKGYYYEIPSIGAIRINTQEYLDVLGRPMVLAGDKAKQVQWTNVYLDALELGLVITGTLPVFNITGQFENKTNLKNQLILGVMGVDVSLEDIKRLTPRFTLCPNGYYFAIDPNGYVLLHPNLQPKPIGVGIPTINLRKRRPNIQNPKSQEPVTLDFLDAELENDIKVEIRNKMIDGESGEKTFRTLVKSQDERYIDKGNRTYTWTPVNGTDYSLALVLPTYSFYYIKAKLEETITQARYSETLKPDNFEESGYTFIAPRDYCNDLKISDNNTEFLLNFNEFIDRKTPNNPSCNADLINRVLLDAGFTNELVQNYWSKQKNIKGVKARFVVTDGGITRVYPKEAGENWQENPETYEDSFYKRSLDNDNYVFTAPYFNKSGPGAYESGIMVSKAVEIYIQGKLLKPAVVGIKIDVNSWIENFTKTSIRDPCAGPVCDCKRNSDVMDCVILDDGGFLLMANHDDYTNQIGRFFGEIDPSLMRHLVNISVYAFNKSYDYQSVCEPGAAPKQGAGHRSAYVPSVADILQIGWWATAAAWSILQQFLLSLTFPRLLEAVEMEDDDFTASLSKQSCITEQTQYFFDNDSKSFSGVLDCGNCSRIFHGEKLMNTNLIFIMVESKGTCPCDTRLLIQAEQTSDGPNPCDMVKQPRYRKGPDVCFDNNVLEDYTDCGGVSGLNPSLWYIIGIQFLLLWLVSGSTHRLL
# Sequence (Q08289 whole entry partner): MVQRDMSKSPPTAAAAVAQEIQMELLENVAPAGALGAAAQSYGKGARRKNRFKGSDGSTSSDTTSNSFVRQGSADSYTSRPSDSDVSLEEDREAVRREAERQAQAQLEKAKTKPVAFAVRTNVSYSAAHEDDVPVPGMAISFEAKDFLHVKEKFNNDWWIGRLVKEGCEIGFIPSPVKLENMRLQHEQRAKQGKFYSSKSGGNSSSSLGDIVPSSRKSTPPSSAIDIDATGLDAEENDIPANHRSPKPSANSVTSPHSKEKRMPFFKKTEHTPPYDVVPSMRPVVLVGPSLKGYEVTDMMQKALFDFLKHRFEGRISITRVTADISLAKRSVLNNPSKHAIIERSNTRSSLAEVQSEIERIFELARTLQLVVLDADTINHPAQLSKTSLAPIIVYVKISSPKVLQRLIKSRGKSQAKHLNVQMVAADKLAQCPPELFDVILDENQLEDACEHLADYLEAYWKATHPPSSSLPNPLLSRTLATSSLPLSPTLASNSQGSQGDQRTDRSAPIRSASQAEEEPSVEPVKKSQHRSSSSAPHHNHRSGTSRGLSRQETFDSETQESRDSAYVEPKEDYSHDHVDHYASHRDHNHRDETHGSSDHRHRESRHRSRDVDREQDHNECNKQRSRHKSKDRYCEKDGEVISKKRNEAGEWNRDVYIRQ
# protocol: L-type (CAv1.2) channel blocking, FLIPR data (Table 6)
# Type: cell-based
# testConditions: closed state, read-out: CAv1.2 IC50 Closed
Note: pIC50 values are expressed as the negative base-10 logarithm of concentration in M.

Solved cases below.
- molecule: "CC(C)([C@H]1C[C@H](CNc2ccc(F)c(Cl)c2)C1)S(=O)(=O)c1cccc(C(F)(F)F)c1 [Compound 750]"
  measuredTarget: "CAv1.2 (Homo sapiens, UniProt Q13936)"
  pIC50: 5.47
- molecule: "CC(C)([C@H]1C[C@@H](CNc2ccc(F)c(Cl)c2)C1)S(=O)(=O)c1cccc(C(F)(F)F)c1 [Compound 753]"
  measuredTarget: "CAv1.2 (Homo sapiens, UniProt Q13936)"
  pIC50: 5.13
- molecule: "CC(C)(C[C@H]1C[C@@H](NC(=O)[C@H]2CCCC[C@@H]2N)C1)S(=O)(=O)c1cccc(C(F)(F)F)c1 [Compound 745]"
  measuredTarget: "CAv1.2 (Homo sapiens, UniProt Q13936)"
  pIC50: 5.06
- molecule: "CC(C)([C@H]1C[C@@H](C(=O)Nc2ccc(C(F)(F)F)cc2)C1)S(=O)(=O)c1cccc(C(F)(F)F)c1 [Compound 756]"
  measuredTarget: "CAv1.2 (Homo sapiens, UniProt Q13936)"
  pIC50: 5.38
- molecule: "CC(C)([C@H]1C[C@H](C(=O)NCc2ccc(Oc3ccccc3)cc2)C1)S(=O)(=O)c1cccc(C(F)(F)F)c1 [Compound 764]"
  measuredTarget: "CAv1.2 (Homo sapiens, UniProt Q13936)"
  pIC50: 5.49

Ask: Find pIC50 (CAv1.2 (Homo sapiens, UniProt Q13936)) for the entry CC(C)([C@H]1C[C@@H](C(=O)Nc2ccc(C(F)(F)F)nc2)C1)S(=O)(=O)c1cccc(C(F)(F)F)c1 [Compound 759]
Reply: 5.29

Ask: Another molecule to look at: CC(C)([C@H]1C[C@H](C(=O)Nc2ccc(Cl)cn2)C1)S(=O)(=O)c1cccc(C(F)(F)F)c1 [Compound 761]
Reply: 5.07

----------
# measuredTarget: Human Cav 2.2 channels (Homo sapiens)
# protocol: Fluorescent assay for CaV2.2 channels using potassium depolarization (VIPR/FLIPR)
# Type: cell-based
# testConditions: FLIPR data; inactivated state; read-out: CAv2.2 IC50 Inact.
readoutKind: IC50 (nM)
Give your result in nM as a bare value.

- compound: "CC(C)([C@H]1C[C@@H](NS(=O)(=O)c2ccc(F)c(Cl)c2)C1)S(=O)(=O)c1cccc(C(F)(F)F)c1 [Compound 625]"
  unitAbbrev: "nM"
  IC50: 1090
- compound: "CC(C)S(=O)(=O)c1cc(C(F)(F)F)cnc1C(=O)N[C@H]1C[C@H](C(C)(C)S(=O)(=O)c2cc(F)cc(C(F)(F)F)c2)C1 [Compound 593]"
  unitAbbrev: "nM"
  IC50: 160

# ---- query compound ----
Ask: Consider the compound shown here: Cn1nc(C(F)(F)F)cc1C(=O)N1CC(CS(=O)(=O)c2cc(F)cc(C(F)(F)F)c2)C1 [Compound 748] What is its recorded IC50?
Reply: 5240

----------
# measuredTarget: UniProtKB Q13936
# protocol: L-type (CAv1.2) channel blocking, FLIPR data (Table 6)
# Assay type: cell-based
# testConditions: inactivated state, read-out: CAv1.2 IC50 Inact.
readoutKind: IC50

Solved cases below.
- compound: "CC(C)(C[C@H]1C[C@H](NC(=O)[C@H]2CCCC[C@@H]2N)C1)S(=O)(=O)c1cccc(C(F)(F)F)c1 [Compound 743]"
  IC50: "≥ 10 µM"
- compound: "N[C@H]1CCCC[C@@H]1C(=O)NC[C@H]1C[C@H](S(=O)(=O)c2cccc(Cl)c2)C1 [Compound 779]"
  IC50: "≥ 10 µM"

# ---- query compound ----
Ask: Consider the compound shown here: CC(C)([C@H]1C[C@H](C(=O)Nc2ccc(C(F)(F)F)cn2)C1)S(=O)(=O)c1cccc(C(F)(F)F)c1 [Compound 766] What is its recorded IC50?
Reply: 2.07 µM

----------
# measuredTarget: UniProt Q00975
# protocol: Fluorescent assay for CaV2.2 channels using potassium depolarization (VIPR/FLIPR)
# Type: cell-based
# testConditions: FLIPR data; closed state; read-out: CAv2.2 IC50 Closed
Quick rule for you: IC50 under 6 µM gets yes (1), anything else gets no (0).

- compound: "O=C(NC[C@H]1C[C@H](S(=O)(=O)c2cc(F)cc(C(F)(F)F)c2)C1)c1ccc(Cl)cn1"
  measuredTarget: "UniProt Q00975"
  labelClass: "yes (1)"

Ask: Input CC(C)(C[C@H]1C[C@@H](NC(=O)c2ccc(C(F)(F)F)nc2)C1)S(=O)(=O)c1cccc(C(F)(F)F)c1 ; condition: IC50 strictly below 6 µM. Does it hold?
Reply: yes (1)

Ask: Another compound to look at: CC(C)([C@H]1C[C@H](NC(=O)CC2(N)CCCCC2)C1)S(=O)(=O)c1cccc(OC(F)(F)F)c1
Reply: yes (1)

Ask: Another compound to look at: CC(C)([C@H]1C[C@H](C(=O)Nc2cc(C(F)(F)F)n[nH]2)C1)S(=O)(=O)c1cccc(C(F)(F)F)c1
Reply: no (0)

Ask: Another compound to look at: CC(C)([C@H]1C[C@H](NC(=O)c2ccc(Cl)cn2)C1)S(=O)(=O)c1cccc(C(F)(F)F)c1
Reply: yes (1)

Ask: Another compound to look at: O=C(NC[C@H]1C[C@H](S(=O)(=O)c2cccc(Cl)c2)C1)c1ccc(C(F)(F)F)cc1
Reply: no (0)

Ask: Another compound to look at: CC(C)([C@H]1C[C@H](NC(=O)c2ccc(C(F)(F)F)nc2)C1)S(=O)(=O)c1cccc(C(F)(F)F)c1
Reply: no (0)

Ask: Another compound to look at: O=C(NC[C@H]1C[C@H](S(=O)(=O)c2cccc(OC(F)(F)F)c2)C1)c1cnc(C(F)(F)F)nc1
Reply: no (0)

Ask: Another compound to look at: CC(C)([C@H]1C[C@H](Nc2ccnc(C(F)(F)F)n2)C1)S(=O)(=O)c1cc(F)cc(C(F)(F)F)c1
Reply: yes (1)

Ask: Another compound to look at: CC(C)([C@H]1C[C@H](NC(=O)c2ncc(C(F)(F)F)cc2S(C)(=O)=O)C1)S(=O)(=O)c1cc(F)cc(C(F)(F)F)c1
Reply: no (0)

----------
Overview of reported pIC50 across a group of compounds:
# measuredTarget: UniProt:Q00975
# protocol: Fluorescent assay for CaV2.2 channels using potassium depolarization (VIPR/FLIPR)
# Assay type: cell-based
# testConditions: FLIPR data; closed state; read-out: CAv2.2 IC50 Closed
Note: pIC50 values are expressed as the negative base-10 logarithm of concentration in M.

Solved cases below.
- structureString: "CC(C)(C[C@H]1C[C@@H](NC(=O)[C@@H]2CCCC[C@H]2N)C1)S(=O)(=O)c1cccc(C(F)(F)F)c1"
  measuredTarget: "UniProt:Q00975"
  pIC50: 5.41
- structureString: "CC(C)([C@H]1C[C@H](NC(=O)CC2(N)CCCCC2)C1)S(=O)(=O)c1cc(F)cc(C(F)(F)F)c1"
  measuredTarget: "UniProt:Q00975"
  pIC50: 5.07
- structureString: "CC(C)([C@H]1C[C@@H](NC(=O)c2ccc(C(F)(F)F)nc2)C1)S(=O)(=O)c1cccc(C(F)(F)F)c1"
  measuredTarget: "UniProt:Q00975"
  pIC50: 5.07
- structureString: "CC(C)S(=O)(=O)c1cc(C(F)(F)F)cnc1C(=O)N[C@H]1C[C@H](C(C)(C)S(=O)(=O)c2cccc(OC(F)(F)F)c2)C1"
  measuredTarget: "UniProt:Q00975"
  pIC50: 5.17
- structureString: "CC(C)([C@H]1C[C@@H](NC(=O)c2ccc(F)c(Cl)c2)C1)S(=O)(=O)c1cccc(OC(F)(F)F)c1"
  measuredTarget: "UniProt:Q00975"
  pIC50: 5.78
- structureString: "CC(C)(C[C@H]1C[C@@H](NC(=O)c2ccc(Cl)cn2)C1)S(=O)(=O)c1cccc(C(F)(F)F)c1"
  measuredTarget: "UniProt:Q00975"
  pIC50: 6.30

# ---- query compound ----
Ask: Consider the compound shown here: CC(C)([C@H]1C[C@@H](NC(=O)c2ccc(Cl)c(F)c2)C1)S(=O)(=O)c1cccc(OC(F)(F)F)c1 What is its recorded pIC50?
Reply: 5.60
